Give ED100 for every item shown.
System: Mustela putorius furo
Test: Antiemetic activity against cisplatin-induced emesis in sc dosed ferrets
Assay type: functional, organism-based

# input Requested read-out: ED100. Entry: COc1cc2c(cc1CN[C@H]1CCCN[C@H]1c1ccccc1)C(C(F)(F)F)CC2 (mixture of isomers; 10)
# output 1 mg/kg

# input Try the molecule COc1ccc(C(C)(C)C(F)(F)F)cc1CN[C@H]1CCCN[C@H]1c1ccccc1
# output 1 mg/kg

# input Try the molecule COc1cc2c(cc1CN[C@H]1CCCN[C@H]1c1ccccc1)C(C)(C(F)(F)F)OC2 (mixture of isomers; 15)
# output 0.3 mg/kg

# input Try the molecule COc1ccc(CC(F)(F)F)cc1CN[C@H]1CCCN[C@H]1c1ccccc1
# output 0.1 mg/kg

# input Try the molecule COc1cc2c(cc1CN[C@H]1CCCN[C@H]1c1ccccc1)C(C(F)(F)F)CCC2 (mixture of isomers; 17)
# output 1 mg/kg

# input Try the molecule COc1ccc(C(C(F)(F)F)C(F)(F)F)cc1CN[C@H]1CCCN[C@H]1c1ccccc1
# output 0.9 mg/kg
